Where these numbers come from: patent EP4817631A2

Molecular target: T1, R &D hRGMc-His (human, UniProt Q6ZVN8 36-400)
T1 construct: Bought (R&D) His-tagged human RGMc; also called human RGMc; not shown: His tag
T1 sequence: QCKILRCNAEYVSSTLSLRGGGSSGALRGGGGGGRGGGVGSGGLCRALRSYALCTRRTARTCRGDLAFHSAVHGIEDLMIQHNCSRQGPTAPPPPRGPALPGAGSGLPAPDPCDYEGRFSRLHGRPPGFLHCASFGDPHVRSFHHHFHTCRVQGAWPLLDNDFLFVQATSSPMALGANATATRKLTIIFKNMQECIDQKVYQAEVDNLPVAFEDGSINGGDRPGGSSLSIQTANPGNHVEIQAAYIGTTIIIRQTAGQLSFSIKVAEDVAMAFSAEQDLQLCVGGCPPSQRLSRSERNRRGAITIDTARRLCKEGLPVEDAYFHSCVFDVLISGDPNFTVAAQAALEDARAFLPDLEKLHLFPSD
Test: BIAcore; Ab captured on CM5 chip via anti-hIgG Fc Ab, antigen injected; 1:1 Langmuir fit
endpoint: Kd (nM)
Express the result in nM but write the number alone.

{"binder": "h5F9.AM11 (antibody, V domains shown, also called RGMA-h5F9AM; 11; RGMA-h5F9pJP302/pJP 303 hIgG1/K mut) VH: EVQLVESGGGLVQPGGSLRLSCAASGFTFSNYGMNWVRQAPGKGLEWVSMIYYDSSEKHYADSVKGRFTISRDNSKNTLYLQMNSLRAEDTAVYYCAKGTTPDYWGQGTMVTVSS VL: DVVLTQSPLSLPVTLGQPASISCRSSQSLEDSDGGTFLEWFQQRPGQSPRLLIYDVSSRFSGVPDRFSGSGSGTDFTLKISRVEAEDVGVYYCFQATHDPLSFGQGTKLEIK", "endpoint": "Kd", "experimental.value": 0.285}
{"binder": "h5F9.AM4 (antibody, V domains shown, also called RGMA-h5F9AM.4; RGMA-h5F9Vh7a/pJP29 1 hIgG1/K mut) VH: EVQLVESGGGLVQPGGSLRLSCAASGFTFSNYGMNWIRQAPGKGLEWIGMIYYDSSEKHYADSVKGRFTISRDNSKNTLYLQMNSLRAEDTAVYYCAKGTTPDYWGQGTMVTVSS VL: DVVLTQSPLSLPVTLGQPASISCRSSQSLESSDGDTFLEWFQQRPGQSPRLLIYDVSTRFSGVPDRFSGSGSGTDFTLKISRVEAEDVGVYYCFQVTHDPVTFGQGTKLEIK", "endpoint": "Kd", "experimental.value": 0.13}
{"binder": "humanized antibody 5F9.23 (antibody, V domains shown, Humanized parental antibody; also called h5F9.23; H5F9.23*) VH: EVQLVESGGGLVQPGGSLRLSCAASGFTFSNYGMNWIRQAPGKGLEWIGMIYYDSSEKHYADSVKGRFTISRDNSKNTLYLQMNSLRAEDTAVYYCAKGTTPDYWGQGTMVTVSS VL: DVVLTQSPLSLPVTLGQPASISCRSSQSLEYSDGYTFLEWFQQRPGQSPRLLIYEVSNRFSGVPDRFSGSGSGTDFTLKISRVEAEDVGVYYCFQATHDPLTFGQGTKLEIKR", "endpoint": "Kd", "experimental.value": 29}

Now consider the entry below.
query: Suppose we examine the binder h5F9.AM9 (antibody, V domains shown, also called RGMA-h5F9AM.9; RGMA-h5F9pJP297/pJP 299 hIgG1/K mut) VH: EVQLVESGGGVVQPGRSLRLSCAASGFTFSNYGMNWVRQAPGKGLEWVAMIYYDSSEKHYADSVKGRFTISRDNSKNTLYLQMNSLRAEDTAVYYCARGTTPDYWGQGTMVTVSS VL: DVVLTQSPLSLPVTLGQPASISCRSSQSLADSDGDTFLHWFQQRPGQSPRLLIYAVSHRFSGVPDRFSGSGSGTDFTLKISRVEAEDVGVYYCFQATHDPVTFGQGTKLEIK ; what Kd value has been reported?
result: 0.71
